Assay: Selectivity index, ratio of CC50 for African green monkey Vero cells to IC50 for HSV1/F
Type: toxicity
Settings: read-out: Ratio CC50/IC50
I'd appreciate it if you could supply selectivity ratio values for the items below.

CCCCCCCCCC(=O)/C=C/c1c(CCCCCCCCC)oc2c(O)ccc(-c3oc4cc(O)cc(O)c4c(=O)c3O[C@@H]3O[C@H](CO)[C@H](O)[C@H](O)[C@H]3O)c12	> 11.3
Nc1nc2c(ncn2COCCO)c(=O)[nH]1	> 1330

Okay, now this compound:
query: I would be grateful if you could share the reported selectivity ratio for CCCCCCCCCc1oc2c(O)ccc(-c3oc4cc(O)cc(O)c4c(=O)c3O[C@@H]3O[C@H](CO)[C@H](O)[C@H](O)[C@H]3O)c2c1C=O .
result: > 16.1

These entries and their values trace back to ChEMBL document CHEMBL4130537.
